The reported measurements were obtained from patent US8575163B2.

tested on: PDK1 kinase activity (phospho-T308-PKB) in PC3 cells; assay: Cellular testing of PDK1 kinase inhibitors in PC3 cells (Luminex, phospho-T308-PKB); assay type: cell-based; conditions: Homo sapiens, PC-3, 0.5 h, 30 min incubation, serum-free, read-out: IC50 PC3 cells [P-PKB T308]
endpoint name: IC50 (nM)

CC(C)C(O)(c1cccc(F)c1)c1cc(-c2c[nH]c3ncc(-c4cnn(C)c4)cc23)nc(N)n1 (stereo not shown) | 110
CC[C@@](O)(c1ccccc1)c1cc(-c2c[nH]c3ncc(-c4cnn(CC(=O)N5CCCCC5)c4)cc23)nc(N)n1 (single isomer, unassigned) | 870

A = Cn1cc(-c2cnc3[nH]cc(-c4cc([C@@](O)(c5ccccc5)C(F)(F)F)nc(N)n4)c3c2)cn1 (single isomer, unassigned)
B = CCC[C@](O)(c1cc(-c2c[nH]c3ncc(-c4cnn(C)c4)cc23)nc(N)n1)c1ccccc1F (single isomer, unassigned)
Field: lower IC50 | Options: A / B Provide the label of your selected option as the answer.
B
